All figures here come from paper PMC4484650.

# Format: in vivo, human (healthy men)
# REPORTED_CONDITIONS: male, human, plasma, po, 60 mg
PROPERTY_LABEL: Tmax (h)
The response must be a number in h with no trailing unit.

Asked: Fill in the blank: the reported Tmax of `CCN(CC)C(=O)[C@@]1(c2ccccc2)C[C@H]1CN` is ____.
Given back: 2.75

====

# EXPERIMENT_NOTES: Rat plasma PK and plasma metabolite profile after oral [14C]-levomilnacipran
# Format: in vivo, Sprague Dawley rats
# REPORTED_CONDITIONS: Sprague Dawley, rat, plasma, po, 50 mg/kg
PROPERTY_LABEL: Cmax (ng/mL)
The response must be a number in ng/mL with no trailing unit.

Asked: Fill in the blank: the reported Cmax of `CCN(CC)C(=O)[C@@]1(c2ccccc2)C[C@H]1CN` is ____.
Given back: 8060

====

# EXPERIMENT_NOTES: Rat plasma PK and plasma metabolite profile after oral [14C]-levomilnacipran
# Format: in vivo, Sprague Dawley rats
# REPORTED_CONDITIONS: Sprague Dawley, rat, plasma, po, 50 mg/kg
PROPERTY_LABEL: Tmax

Asked: Fill in the blank: the reported Tmax of `CCN(CC)C(=O)[C@@]1(c2ccccc2)C[C@H]1CN` is ____.
Given back: 30 min

====

# Format: in vivo, human (healthy men)
# REPORTED_CONDITIONS: male, human, plasma, po, 60 mg
PROPERTY_LABEL: AUC(0-t) (ng·h/mL)
The response must be a number in ng·h/mL with no trailing unit.

Asked: Fill in the blank: the reported AUC(0-t) of `CCN(CC)C(=O)[C@@]1(c2ccccc2)C[C@H]1CN` is ____.
Given back: 2060
